target: FLJ39196 clone-derived protein (human neurocalcin δ) (Homo sapiens, UniProt P61601); construct: A human full-length cDNA clone was expressed as a protein with an N-terminal His tag; His tag (N); made in house; host or cells: Escherichia coli BL21star(DE3)pLysS (pDEST17 Gateway expression plasmid); test: SEC/MS interaction analysis (size exclusion spin column and mass analysis) with FLJ39196 clone-derived protein; format: binding; conditions: protein 0 μM (protein-free reference), compound 1 μM
ASSAY_READOUT: spectral intensity of the compound in the SEC spin column filtrate (protein fraction)
# answer = number (no unit)

Sample CCCCCCCCNC(C)C(O)c1ccc(SC(C)C)cc1 (stereo not shown) [Suloctidil] — what was its spectral intensity of the compound in the SEC spin column filtrate (protein fraction)?
6080126

Sample c1ccc(-c2ccc(C(c3ccccc3)n3ccnc3)cc2)cc1 (stereo not shown) [Bifonazole] — what was its spectral intensity of the compound in the SEC spin column filtrate (protein fraction)?
32068857

Sample Cc1cc(-c2ccccc2)nnc1NCCN1CCOCC1 [Minaprine] — what was its spectral intensity of the compound in the SEC spin column filtrate (protein fraction)?
15652447

Sample COC(=O)[C@H]1[C@H]2C[C@@H]3c4[nH]c5cc(OC)ccc5c4CCN3C[C@H]2C[C@@H](OC(=O)/C=C/c2cc(OC)c(OC)c(OC)c2)[C@@H]1OC [Rescinnamine] — what was its spectral intensity of the compound in the SEC spin column filtrate (protein fraction)?
9843174

Reference source: patent US8178077B2
